Each recorded value in this set is attributed to paper PMC6491818.

# Protocol: in vitro
# Condition: Sprague-Dawley, rat, microsomes
Measurement Label: CLint scaled

Smiles Entry: C[C@]12CC[C@H]3[C@@H](CCC4=CC(=O)CC[C@@]43C)[C@@H]1CC[C@@H]2O
Recorded Value: 227 L/h/kg

----------
# Protocol: Pharmacokinetic study in SD rats, oral
# Format: in vivo
# Condition: Sprague-Dawley, rat, plasma, 5 mg/kg

Compound: COc1ncc(-c2ccc3nccc(/C=C/C(=O)N4CCN(C)CC4)c3c2)cc1NS(=O)(=O)c1ccc(F)cc1F [8i]
Cmax (ng/mL): 249

----------
# Protocol: Pharmacokinetic study in SD rats, oral
# Assay type: in vivo
# Condition: Sprague-Dawley, rat, plasma, 5 mg/kg

Compound: COc1ncc(-c2ccc3nccc(/C=C/C(=O)N4CCN(C)CC4)c3c2)cc1NS(=O)(=O)c1ccc(F)cc1F [8i]
AUC(0-t), ng·h/mL: 379

----------
# Protocol: in vitro
# Condition: human, microsomes

Smiles Entry: C[C@]12CC[C@H]3[C@@H](CCC4=CC(=O)CC[C@@]43C)[C@@H]1CC[C@@H]2O
Unit Of Measure: %
remaining at 1 h: 4.8

----------
# Tested on: colorectal cancer HCT116 cell line
# Protocol: Anti-proliferative SRB assay, HCT116
# Format: cell-based
# Condition: Homo sapiens, HCT-116, HCT116 cells, 72 h exposure
Measurement Label: GI50

Molecule: COc1ncc(-c2ccc3nccc(/C=C/C(=O)NCCN4CCOCC4)c3c2)cc1NS(=O)(=O)c1ccc(F)cc1F
Measurement Label: GI50
Recorded Value: 1790 nM
--
Molecule: COc1ncc(-c2ccc3nccc(/C=C/C(=O)NC(C)(C)C)c3c2)cc1NS(=O)(=O)c1ccc(F)cc1F
Measurement Label: GI50
Recorded Value: 700 nM
--
Molecule: COc1ncc(-c2ccc3nccc(/C=C/C(=O)NC4CCC4)c3c2)cc1NS(=O)(=O)c1ccc(F)cc1F
Measurement Label: GI50
Recorded Value: 1250 nM
--
Molecule: COc1ncc(-c2ccc3nccc(/C=C/C(=O)N4CCCCC4)c3c2)cc1NS(=O)(=O)c1ccc(F)cc1F
Measurement Label: GI50
Recorded Value: 1300 nM
--
Molecule: COc1ncc(-c2ccc3nccc(/C=C/C(=O)N(C)CCO)c3c2)cc1NS(=O)(=O)c1ccc(F)cc1F
Measurement Label: GI50
Recorded Value: 960 nM
--
Molecule: COc1ncc(-c2ccc3nccc(/C=C/C(=O)N4CCC(CO)CC4)c3c2)cc1NS(=O)(=O)c1ccc(F)cc1F
Measurement Label: GI50
Recorded Value: 1290 nM
--
Molecule: COc1ncc(-c2ccc3nccc(/C=C/C(=O)N4CCCC(O)C4)c3c2)cc1NS(=O)(=O)c1ccc(F)cc1F (centres unmarked)
Measurement Label: GI50
Recorded Value: 1560 nM
--
Molecule: COc1ncc(-c2ccc3nccc(/C=C/C(=O)N4CCOCC4)c3c2)cc1NS(=O)(=O)c1ccc(F)cc1F
Measurement Label: GI50
Recorded Value: 510 nM
--
Molecule: COCCNC(=O)/C=C/c1ccnc2ccc(-c3cnc(OC)c(NS(=O)(=O)c4ccc(F)cc4F)c3)cc12
Measurement Label: GI50
Recorded Value: 1130 nM
--
Molecule: COc1ncc(-c2ccc3nccc(/C=C/C(=O)N4CCCC4)c3c2)cc1NS(=O)(=O)c1ccc(F)cc1F
Measurement Label: GI50
Recorded Value: 1460 nM
--
Molecule: COc1ncc(-c2ccc3nccc(-c4ccnnc4)c3c2)cc1NS(=O)(=O)c1ccc(F)cc1F [GSK2126458, reference compound]
Measurement Label: GI50
Recorded Value: 180 nM
--
Molecule: COc1ncc(-c2ccc3nccc(/C=C/C(=O)N4CCN(C(C)C)CC4)c3c2)cc1NS(=O)(=O)c1ccc(F)cc1F
Measurement Label: GI50
Recorded Value: 970 nM
--
Molecule: COc1ncc(-c2ccc3nccc(/C=C/C(=O)Nc4ccccc4)c3c2)cc1NS(=O)(=O)c1ccc(F)cc1F
Measurement Label: GI50
Recorded Value: 1520 nM
--
Molecule: COc1ncc(-c2ccc3nccc(/C=C/C(=O)NC4CC4)c3c2)cc1NS(=O)(=O)c1ccc(F)cc1F
Measurement Label: GI50
Recorded Value: 1560 nM
--
Molecule: COc1ncc(-c2ccc3nccc(/C=C/C(=O)N4CCC(O)CC4)c3c2)cc1NS(=O)(=O)c1ccc(F)cc1F
Measurement Label: GI50
Recorded Value: 320 nM
--
Molecule: COc1ncc(-c2ccc3nccc(/C=C/C(=O)N4CCN(C)CC4)c3c2)cc1NS(=O)(=O)c1ccc(F)cc1F
Measurement Label: GI50
Recorded Value: 470 nM
--
Molecule: COc1ncc(-c2ccc3ncccc3c2)cc1NS(=O)(=O)c1ccc(F)cc1F
Measurement Label: GI50
Recorded Value: 3670 nM
